Reference for the values: ChEMBL document CHEMBL1201862

Test system: T47D
RUN DESCRIPTION: NCI tumour cell line growth inhibition, 48 h
Activity calls are given as the source filed them. No stated cut-off is given here; in the data, active = GI50 up to about 1.1 µM and inactive = higher.
Documented GI50 across a set of compounds
MEASURE: GI50

{"COMPOUND": "N#CC(/N=N/c1ccc(Cl)cc1)c1nc2ccccc2o1 (stereo not given)", "ENDPOINT RESULT": "7.71 µM (inactive)"}
{"COMPOUND": "CCOC(=O)C1=CC(C)(C(=O)OCC)Nc2c(nc(SC)n(C)c2=O)N1 (stereo not given)", "ENDPOINT RESULT": "> 10 µM (inactive)"}
{"COMPOUND": "CCOP(=O)(OCC)C(Cc1ccc(Cl)cc1)NS(=O)(=O)c1ccc(C)cc1 (stereo not given)", "ENDPOINT RESULT": "> 100 µM (inactive)"}
{"COMPOUND": "CC(=O)c1ccc2c(c1)CC1(C2)Cc2cc3c(cc2C1)C(=O)CC3 (stereo not given)", "ENDPOINT RESULT": "3.33 µM (inactive)"}
{"COMPOUND": "O=C(CC(C(=O)O)N1CCOCC1)c1ccccc1 (stereo not given)", "ENDPOINT RESULT": "> 100 µM (inactive)"}
{"COMPOUND": "Nc1nc(O)c(N)c(NCCOCP(=O)(O)O)n1", "ENDPOINT RESULT": "> 100 µM (inactive)"}
{"COMPOUND": "COc1cc(NS(C)(=O)=O)ccc1NCc1c[nH]c2ccc3nc(C)ccc3c12", "ENDPOINT RESULT": "24.2 µM (inactive)"}
{"COMPOUND": "CCCCCCCCCCCCCCCCNc1ccn(C2CC(OP(=O)(O)OCC3OC(n4cc(CC)c(=O)[nH]c4=O)CC3O)C(CO)O2)c(=O)n1 (stereo not given)", "ENDPOINT RESULT": "44.2 µM (inactive)"}
{"COMPOUND": "O=C(Cn1ccnc1[N+](=O)[O-])NCCO", "ENDPOINT RESULT": "> 100 µM (inactive)"}
{"COMPOUND": "N#C/C(=C\\c1ccc(F)cc1)c1nc(-c2cc3ccccc3oc2=O)cs1", "ENDPOINT RESULT": "24.2 µM (inactive)"}
